test name: Apparent permeability assay in biorelevant media (PAMPA)
Type: in vitro ADME
run conditions: PAMPA, parallel artificial membrane, FaSSIF
readout: Papp

>>> print(df.to_string())
                         structure_notation  readout  observed_result
0  CCCSc1nc(N[C@@H]2C[C@H]2c2ccc(F)c(F)c2)c2nnn([C@@H]3C[C@H](OCCO)[C@@H](O)[C@H]3O)c2n1     Papp  90.2 ×10⁻⁶ cm/s

---

test name: Equilibrium solubility of APIs in aqueous and biorelevant media
Assay type: physicochemical
run conditions: thermodynamic from solid, pH 5.0 FeSSIF, 37 °C
Reported solubility thermodynamic at 24 h values for a set of compounds
readout: solubility thermodynamic at 24 h

>>> df
                         structure_notation  observed_result
0  CCCSc1nc(N[C@@H]2C[C@H]2c2ccc(F)c(F)c2)c2nnn([C@@H]3C[C@H](OCCO)[C@@H](O)[C@H]3O)c2n1       4050 µg/mL
1  O=C(NC[C@H]1CN(c2ccc(N3CCOCC3=O)cc2)C(=O)O1)c1ccc(Cl)s1       10.6 µg/mL
